Origin of values: patent US7825256B2

Target: UniProt:P35228
Test: DAN assay, hiNOS expressed in transiently transfected HEK293 cells
Details: HEK293 cells transiently transfected with hiNOS
pEC50: −log10 of the molar value.
Listed below: pEC50 values for each entry.

Cc1cc(C2CCCN2C(=O)NCCc2ccc3c(c2)OCO3)nc(-n2ccnc2)n1 (centres unmarked) ... > 6.00
CN(CCCN(C)c1nc(-n2ccnc2)ns1)CCc1ccc2c(c1)OCO2 ... > 6.00
Cc1cc(C2C(C(=O)NCCc3ccc4c(c3)OCO4)CCN2C)nc(-n2ccnc2)n1 (centres unmarked) ... > 6.00
COc1ccc(CNCCCN(C)c2nc(-n3ccnc3)ns2)c(OC)c1 ... > 6.00
O=C(NCCc1ccc2c(c1)OCO2)[C@H]1CCCCN1c1nc(-n2ccnc2)ns1 ... > 6.00
Cc1cc(C(C)(C)CNC(=O)CCc2ccc3c(c2)OCO3)nc(-n2ccnc2)n1 ... > 6.00

Prompt line: Can you look up the measured pEC50 of Cc1cc(CNC(=O)C2CCCN2Cc2ccc(OC(C)C)cc2)nc(-n2ccnc2)n1 (centres unmarked) for me?
Response line: < 4.30

Prompt line: Data request, read-out pEC50, for CN(CCCNCCc1ccc2c(c1)OCO2)c1nc(-n2ccnc2)ns1
Response line: > 6.00

Prompt line: # input compound: COc1ccc(CNCCNC(C)c2cc(C)nc(-n3ccnc3)n2)cc1F (centres unmarked) ; wanted: its pEC50
Response line: > 6.00

====

Molecular target: hiNOS (Homo sapiens)
Assay: DAN assay, hiNOS expressed in transiently transfected HEK293 cells
Conditions: HEK293 cells transiently transfected with hiNOS
pEC50: −log10 of the molar value.
Parameter Measured: pEC50

COc1ccc(CN2CCCC2C(=O)NCc2cc(C)nc(-n3ccnc3)n2)cc1O (stereo not shown) [Example 114] ... < 4.30
O=C(NCCc1ccc2c(c1)OCO2)[C@@H]1C[C@@H](O)CN1c1nc(-n2ccnc2)ns1 [Example 27] ... > 6.00

Prompt line: Which value of pEC50 has been reported for COc1cc(CN2CCCC2C(=O)NCc2cc(C)nc(-n3ccnc3)n2)cc(OC)c1 (stereo not shown) [Example 110] in the records?
Response line: < 4.30

====

Each item that follows carries a reported pEC50.
Target: hiNOS (Homo sapiens, UniProt P35228)
Experiment: DAN assay, hiNOS expressed in transiently transfected HEK293 cells
Details: HEK293 cells transiently transfected with hiNOS
pEC50: −log10 of the molar value.

O=C(NCCc1ccc2c(c1)OCCO2)[C@H]1C[C@@H](O)CN1c1nc(-n2ccnc2)ns1 ... > 6.00
O=C(NCCc1ccc2c(c1)OCO2)[C@H]1C[C@@H](O)CN1c1nc(-n2ccnc2)ns1 ... > 6.00
CN(CCCNS(=O)(=O)c1ccc(OC(F)(F)F)cc1)c1nc(-n2ccnc2)ns1 ... < 4.30
CC(=O)Oc1ccc(CN(CCCN(C)c2nc(-n3ccnc3)ns2)Cc2ccc(OC(C)=O)cc2)cc1 ... > 6.00
CN(CCNCc1ccc2c(c1)OCO2)c1nc(-n2ccnc2)ns1 ... > 6.00
Cc1cc(C(C)(C)C(=O)NCCNCc2ccc3c(c2)OCO3)nc(-n2ccnc2)n1 ... > 6.00

Prompt line: Recorded pEC50 for CNC(=O)C1CCN(CCNCc2ccc3c(c2)OCO3)C1c1cc(C)nc(-n2ccnc2)n1 (centres unmarked) , please?
Response line: > 6.00

Prompt line: Name the reported pEC50 value associated with the compound Cc1cc(C(C)(C)/C=C/C(=O)NCc2ccc3c(c2)OCO3)nc(-n2ccnc2)n1
Response line: > 4.30

Prompt line: // pEC50 lookup, key: CCOC(=O)CN(Cc1cc(C)nc(-n2ccnc2)n1)C(=O)NCCc1ccc2c(c1)OCO2
Response line: > 6.00

Prompt line: What pEC50 value was documented for this compound, Cc1cc(C2CCCCN2CCN(C)Cc2ccc3c(c2)OCO3)nc(-n2ccnc2)n1 (centres unmarked) ?
Response line: > 6.00

Prompt line: Can you share its pEC50? I mean this compound: CC(NCCNCc1ccc2c(c1)OCO2)c1csc(-n2ccnc2)n1 (centres unmarked)
Response line: > 6.00

Prompt line: Can you look up the measured pEC50 of CC(NCCOCc1ccc2c(c1)OCO2)c1nc(-n2ccnc2)ns1 (centres unmarked) for me?
Response line: > 6.00
